Target system: HLA-B*44:02
Procedure summary: IEDB peptide-MHC binding, purified MHC/competitive/radioactivity; filed as Kd, often an IC50 or EC50 that approximates it; bounds were set here for any values at or beyond the usual limits of such assays
Conditions: source organism: Dengue virus 3 Martinique/1243/1999
Value type: pKd
Hey, just a heads up that pKd is the negative log base 10 of the concentration in molar.

Macromolecule sequence	pKd
AETQNSSFII	7.20

Attention now turns to another entry.
// pKd lookup, sequence = EEEMFKKRNL , result: 7.05

----------
Target system: HLA-B*57:01
Procedure summary: IEDB peptide-MHC binding, purified MHC/competitive/fluorescence; filed as Kd, often an IC50 or EC50 that approximates it; bounds were set here for any values at or beyond the usual limits of such assays
Conditions: source organism: Giardia lamblia ATCC 50803
Value type: Kd

Memo: TMNSRYYLV , reported Kd: ≥ 20 µM

----------
Target system: HLA-A*03:01
Procedure summary: IEDB peptide-MHC binding, purified MHC/competitive/radioactivity; filed as Kd, often an IC50 or EC50 that approximates it; bounds were set here for any values at or beyond the usual limits of such assays
Conditions: source organism: Lymphocytic choriomeningitis virus (strain Armstrong)
Value type: Kd (nM)
Report the value in nM with no unit label.

Value of measured Kd for the entry VTMFEALPH : 467

----------
Target system: HLA-A*66:01
Procedure summary: IEDB peptide-MHC binding, purified MHC/competitive/fluorescence; filed as Kd, often an IC50 or EC50 that approximates it; bounds were set here for any values at or beyond the usual limits of such assays
Conditions: source organism: Escherichia coli 536
Value type: Kd

What the record says about YQAENSTAE : Kd is ≥ 5 µM

----------
Target system: HLA-A*68:02
Procedure summary: IEDB peptide-MHC binding, purified MHC/competitive/radioactivity; filed as Kd, often an IC50 or EC50 that approximates it; bounds were set here for any values at or beyond the usual limits of such assays
Conditions: source organism: Dengue virus 3 Martinique/1243/1999
Value type: Kd (nM)
The reply should be a number in nM, with the unit left off.

Record YVVIGILTLA . Reported Kd: 123

----------
Target system: HLA-A*02:01
Procedure summary: IEDB peptide-MHC binding, purified MHC/direct/fluorescence; filed as Kd, often an IC50 or EC50 that approximates it; bounds were set here for any values at or beyond the usual limits of such assays
Conditions: source organism: Entamoeba histolytica HM-1:IMSS
pKd: −log10 of the molar value.
Value type: pKd

get_value(item= VKINIFPLY , readout=pKd) returns ≤ 4.70

----------
Target system: HLA-B*45:06
Procedure summary: IEDB peptide-MHC binding, purified MHC/competitive/fluorescence; filed as Kd, often an IC50 or EC50 that approximates it; bounds were set here for any values at or beyond the usual limits of such assays
Conditions: source organism: Rattus norvegicus
Value type: Kd

For FLRKNQRAL the sequence record lists Kd as ≥ 5 µM

----------
Target system: HLA-B*27:03
Procedure summary: IEDB peptide-MHC binding, purified MHC/competitive/fluorescence; filed as Kd, often an IC50 or EC50 that approximates it; bounds were set here for any values at or beyond the usual limits of such assays
Conditions: source organism: Bacillus anthracis str. A0488
Value type: Kd

In plain terms, MFKNFPFFK has a documented Kd of ≥ 20 µM

----------
Target system: HLA-A*02:03
Procedure summary: IEDB peptide-MHC binding, purified MHC/competitive/radioactivity; filed as Kd, often an IC50 or EC50 that approximates it; bounds were set here for any values at or beyond the usual limits of such assays
Conditions: source organism: Vaccinia virus WR
pKd: −log10 of the molar value.
Classification by pKd | ranges: low band (below 6), middle band (6 to below 7), high band (7 or more)

Take a look at these entries with their results.
Macromolecule sequence	Target system	Discrete label
NLERETGLSA	HLA-A*02:03	low band
QIFEVYWYL	HLA-A*02:03	middle band
ALAEHISDSI	HLA-A*02:03	high band

Class for RLLIWAYLSK ?
low band

GET /class?item= VLPFDIKYI
high band

Assign a category based on measured pKd for QTGINNVQSL and give only the class name.
low band

# bin label for EIVSHLRAST
low band

Just checking, what class would you give DAKRNSKSL here?
low band

Each sequence maps to one class by pKd. Which class for RINLLVQYGA ?
low band

Lab note: which band did DTIAHINTL land in?
middle band
